These data points were gathered from PubChem BioAssay (NCI).

- System: M14 melanoma
- assay_details: NCI tumour cell line growth inhibition, 48 h
measurement_name: TGI

Example molecules with recorded TGI:
molecule	experimental_system	observed_value
COc1cc(/C=C2\N=C(c3ccccc3)N(c3ccc(S(=O)(=O)Nc4nccs4)cc3)C2=O)ccc1O	M14 melanoma	> 100 µM
CN(C)CCCNC(=O)c1cc(NC(=O)c2cc(NC(=O)CCCN3c4ccccc4C=Cc4ccccc43)cn2C)cn1C	M14 melanoma	> 100 µM
CC1(c2ccccc2)CC12C(=O)NC(=O)NC2=O (centres undefined)	M14 melanoma	> 100 µM

For the next question, use this molecule.
Problem: Give TGI for the following molecule: `Cc1ccc(/C(O)=C/c2nc3ccccc3nc2NC23CC4CC(CC(C4)C2)C3)cc1`
Solution: > 10 µM

###

- Tested on: HOP-92 NSCLC
- assay_details: NCI tumour cell line growth inhibition, 48 h
measurement_name: TGI (µM)
One number for each entry, in µM.

Parameters: items (list). Returns: TGI for each item.
1. CCOc1cc(NC(C)=O)ccc1C(=O)NN1C(=O)C(Cl)C1c1ccc(O)c(OC)c1 (stereo not given)
2. O=C(/C=C/c1ccsc1)c1cccs1

Solution:
1. 32.3
2. 93.5

Provide reported TGI for each item, in the same order as listed.
1. COc1c(O)cc2oc3cc(O)c(CC=C(C)C)c(O)c3c(=O)c2c1C/C=C(\C)CCC=C(C)C
2. COc1cccc2c(Nc3ccc(C(=O)NCCNCCO)cc3)cc(-c3ccccc3)nc12

Solution:
11.5
51.4

###

Could you please report measured GI50 for the items listed next?
- System: LOX IMVI melanoma
- assay_details: NCI tumour cell line growth inhibition, 48 h

The cases that follow already have their GI50 on record.
record_smiles	GI50
O=C(Nc1cccc(NS(=O)(=O)c2ccc(F)cc2)c1)c1ccc(-c2ccccc2)cc1	2540 nM
COc1ccc(-c2nc3sccn3c2/C=C/C(=O)c2cc(OC)c(OC)c(OC)c2)cc1OC	2600 nM
COC(=O)/C=C1\SC(=Nc2ccc(C(F)(F)F)cc2)N(CCc2c[nH]c3ccccc23)C1=O	1490 nM
Cc1ccc(C)c(-n2c(-c3ccc(Br)cc3)csc2=NC(=O)c2ccccc2F)c1	> 100000 nM

Okay, now this compound:
Problem: Kindly indicate its recorded GI50. Item: `Cc1c(C(=O)CCl)c(=O)n(-c2ccccc2)n1C`
Solution: 3270 nM

###

- Tested on: EKVX NSCLC
- assay_details: NCI tumour cell line growth inhibition, 48 h
measurement_name: GI50

// solved cases for GI50 follow
record_smiles	GI50
COC(=O)C/C(C)=C/[C@@H](O)[C@H]1O[C@@H]2CC/C(Cl)=C/C/C=C(/C)[C@H](OC(C)=O)CC(=O)O[C@@H]1C2	4.93 µM
C=C(CN1CCc2ccccc2C1)c1ccc(/C=C/C(=O)Nc2ccccc2N)cc1	10.4 µM
CS(=O)(=O)c1ccc(Oc2nccc(-c3c(-c4ccc(F)cc4)ncn3C3CCNCC3)n2)cc1	> 25 µM

Please look at the following molecule next.
Problem: Item `Cc1ccc(C)c(-n2c(-c3ccc(Br)cc3)csc2=NC(=O)c2ccccc2F)c1` : provide GI50
Solution: > 100 µM

###

I'd be grateful if you could share measured TGI for these entries.
- Tested on: SK-MEL-28 melanoma
- assay_details: NCI tumour cell line growth inhibition, 48 h

For each of the compounds below, note its TGI.
1. CCOC(=O)c1[nH]c2cccc3c2c1CC(Br)C3=O (stereo unspecified)
2. COc1cccc(/C=C\c2cc(OC)c(OC)c(OC)c2)c1
3. OC12c3ccccc3C1CCCCCCCCCC21OCCCO1 (stereo unspecified)
4. O=c1ccc(-c2ccc(-n3ccnc3)cc2)nn1CCO

Solution:
1. 38.4 µM
2. 7.15 µM
3. > 100 µM
4. > 100 µM

Below are some compounds; for each one, tell me its TGI.
1. O=C1CC2(CCCc3sccc32)C(=O)N1 (stereo unspecified)
2. CC1=C2C(=CC(C)(CO)C2O)C(=O)C(C)(O)C12CC2 (stereo unspecified)
3. O=c1oc2ccccc2cc1-c1nc2ccccc2c(=O)[nH]1
4. CC(C)C(=O)CC(Sc1ccc(N)cc1)c1ccccc1 (stereo unspecified)

Solution:
> 100 µM
0.0138 µM
> 100 µM
> 100 µM

Each compound below has a reported value. Please supply its TGI.
1. COC(=O)C1=C(O)C(C(=O)OC)[C@]2(O)[C@H](C(=O)OC)[C@H]1C[C@@H](c1ccc(Cl)cc1Cl)[C@H]2C(=O)OC (stereo partly specified)
2. CCOC(=O)C12C3CCC1C2C(=O)C3 (stereo unspecified)

Solution:
["53.6 µM", "> 100 µM"]

Problem: Consider the compound O=P(Oc1ccccc1)(Oc1ccccc1)C(O)c1ccccc1 (stereo unspecified) . State its measured TGI.
Solution: > 100 µM
